Entries and their pIC50 values follow.
System: A549 cells
method-summary: Cell proliferation assay (CellTiter-Glo), K-Ras G12S cells
Assay type: cell-based
assay-context: Homo sapiens, A549, A549 cells (K-Ras G12S); bin 500 nM to 5 µM; read-out: Inhibition of A549 Cells (IC50)
pIC50: −log10 of the molar value.

Solved entries (count: 4):
compound | pIC50
N#Cc1c(N)sc2c(F)ccc(-c3c(Cl)cc4c(N5CC6CCC(C5)N6C(=O)n5cc(C(F)(F)F)cn5)nc(OC[C@@]56CCCN5C[C@H](F)C6)nc4c3F)c12 [Compound A122] | 5.30 to 6.30
Cc1nc(C)n(C(=O)N2CC3(CCCN(c4nc(OC[C@@]56CCCN5C[C@H](F)C6)nc5c(F)c(-c6ccc(F)c7sc(N)c(C#N)c67)c(Cl)cc45)C3)C2)n1 [Compound A190] | 5.30 to 6.30
Nc1nc2c(-c3c(Cl)cc4c(N5CCC6(CC5)CN(C(=O)n5cncn5)C6)nc(OC[C@@]56CCCN5C[C@H](F)C6)nc4c3F)ccc(F)c2s1 [Compound A233] | 5.30 to 6.30
C#Cc1c(F)ccc2cc(O)cc(-c3ncc4c(N5CC6CCC(C5)N6C(=O)n5cnc(C#N)c5)nc(OC[C@@]56CCCN5C[C@H](F)C6)nc4c3F)c12 [Compound A255] | 5.30 to 6.30

Then this compound:
Look up and report measured pIC50 for this entry: Nc1nc2c(-c3c(Cl)cc4c(N5CC6CCC(C5)N6C(=O)n5ccnc5Cl)nc(OC[C@@]56CCCN5C[C@H](F)C6)nc4c3F)ccc(F)c2s1 [Compound A242]
5.30 to 6.30

###

method-summary: Metabolic (microsomal) stability assay
Format: in vitro ADME
assay-context: liver microsomes, pH 7.4; mouse and/or human liver microsomal metabolism assays; greater than 10, 20, 30, 40, 50, 60 mins or longer
quantity: half-life at 0.5 µM

Look up and report measured half-life at 0.5 µM for this entry: `N#Cc1cnn(C(=O)N2C3CCC2CN(c2nc(OC[C@@]45CCCN4C[C@H](F)C5)nc4c(F)c(-c5ccc(F)c6sc(N)c(C#N)c56)c(Cl)cc24)C3)c1`
> 10 min

###

System: GP2D cells
method-summary: Cell proliferation assay (CellTiter-Glo), K-Ras G12D cells
Type: cell-based
assay-context: GP2d, read-out: Inhibition of GP2D Cells (IC50)
pIC50: −log10 of the molar value.
quantity: pIC50

Solved entries (count: 5):
molecule | reported-value
Nc1nc2c(-c3c(Cl)cc4c(N5C[C@H]6CC[C@@H](C5)N6C(=O)Nc5ccncn5)nc(OC[C@@]56CCCN5C[C@H](F)C6)nc4c3F)ccc(F)c2s1 [Compound A223] | ≥ 6.00
Nc1nc2c(-c3c(Cl)cc4c(N5CC6CCC(C5)N6C(=O)Nc5cncnc5)nc(OC[C@@]56CCCN5C[C@H](F)C6)nc4c3F)ccc(F)c2s1 [Compound A124] | ≥ 6.00
Nc1nc2c(-c3c(Cl)cc4c(N5C6COCC5CN(C(=O)n5cncn5)C6)nc(OC[C@@]56CCCN5C[C@H](F)C6)nc4c3F)ccc(F)c2s1 [Compound A270] | ≥ 6.00
Nc1nc2c(-c3c(Cl)cc4c(NCCN5CC6CCC(C5)N6C(=O)n5cncn5)nc(OC[C@@]56CCCN5C[C@H](F)C6)nc4c3F)ccc(F)c2s1 [Compound A168] | 5.00 to 6.00
N#Cc1cnn(C(=O)N2C3CCC2CN(c2nc(OC[C@@]45CCCN4C[C@H](F)C5)nc4c(F)c(-c5ccc(F)c6sc(N)c(C#N)c56)ccc24)C3)c1 [Compound A176] | 5.00 to 6.00

Look up and report measured pIC50 for this entry: Nc1nc2c(-c3c(Cl)cc4c(N[C@H]5C[C@H]6CC[C@@H](C5)N6C(=O)n5cncn5)nc(OC[C@@]56CCCN5C[C@H](F)C6)nc4c3F)ccc(F)c2s1 [Compound A207]
5.00 to 6.00

Source listed as patent EP4389751A1.
